protocol details: physchem
particulars: pH 3.4, logP (HCOOH)
parameter measured: chromatographic logP

{"smiles string": "O=C(NS(=O)(=O)Cc1ccccc1)c1cccc(-c2cnc(-c3cncc(F)c3)s2)n1", "parameter measured": "chromatographic logP", "measurement": 2.97}
{"smiles string": "CC(=O)NS(=O)(=O)c1cccc(-c2cnn(-c3cccnc3)c2)n1", "parameter measured": "chromatographic logP", "measurement": 1.17}
{"smiles string": "CCS(=O)(=O)NC(=O)c1cccc(-c2cnn(-c3cccnc3)c2)n1", "parameter measured": "chromatographic logP", "measurement": 1.77}
{"smiles string": "CN(C)S(=O)(=O)NC(=O)c1cccc(-c2cnc(-c3cccnc3)s2)n1", "parameter measured": "chromatographic logP", "measurement": 2.01}
{"smiles string": "CC(=O)NS(=O)(=O)c1cccc(-c2cnc(-c3cccnc3)s2)n1", "parameter measured": "chromatographic logP", "measurement": 1.3}
{"smiles string": "CS(=O)(=O)NC(=O)c1cccc(-c2cnc(-c3cncc(F)c3)s2)n1", "parameter measured": "chromatographic logP", "measurement": 2.05}

P = CS(=O)(=O)NC(=O)c1cccc(-c2cnc(-c3cccnc3)s2)n1
Q = C#CCN(C(=O)c1cccc(-c2cnc(-c3cncc(F)c3)s2)n1)S(C)(=O)=O
Input: Lower value for measured chromatographic logP? Options: P , Q Pick one and reply with its label.
Output: P
(P: 1.56, Q: 2.56)
